Settings: in THF (tetrahydrofuran), room temperature
The molecules listed here are annotated with their log10(Solubility).
Values are log10 of Solubility in mol/kg.

Query: Reported log10(Solubility), molecule O=C1O[B-]2(OC1=O)OC(=O)C(=O)O2.[Li+] [LOB, Lithium-bis(oxalato)borate] : ____
Result: 0.28

Query: Reported log10(Solubility), molecule CC1O[B-]2(OC(=O)C(=O)O2)OC1=O.[Li+] (stereo not drawn) [LLOB, Lithium-(lactato,oxalato)borate] : ____
Result: 0.20

Query: Reported log10(Solubility), molecule O=C1O[B-]2(OC1=O)OC(=O)c1ccccc1O2.[Li+] [LOSB, Lithium-(oxalato,salicylato)borate] : ____
Result: 0.08

---
Query: Reported log10(Solubility), molecule O=C1CC(=O)O[B-]2(O1)OC(=O)C(=O)O2.[Li+] [LOMB, Lithium-(malonato,oxalato)borate] : ____
Result: -0.77

Query: Reported log10(Solubility), molecule O=C1CC(=O)O[B-]2(O1)OC(=O)CC(=O)O2.[Li+] [LMB, Lithium-bis(malonato)borate] : ____
Result: -1.05

These entries and their values trace back to patent US8168806B2.
